Recorded IC50, one value per entry.
Molecular target: UniProtKB P33261
Sequence (P33261 whole entry): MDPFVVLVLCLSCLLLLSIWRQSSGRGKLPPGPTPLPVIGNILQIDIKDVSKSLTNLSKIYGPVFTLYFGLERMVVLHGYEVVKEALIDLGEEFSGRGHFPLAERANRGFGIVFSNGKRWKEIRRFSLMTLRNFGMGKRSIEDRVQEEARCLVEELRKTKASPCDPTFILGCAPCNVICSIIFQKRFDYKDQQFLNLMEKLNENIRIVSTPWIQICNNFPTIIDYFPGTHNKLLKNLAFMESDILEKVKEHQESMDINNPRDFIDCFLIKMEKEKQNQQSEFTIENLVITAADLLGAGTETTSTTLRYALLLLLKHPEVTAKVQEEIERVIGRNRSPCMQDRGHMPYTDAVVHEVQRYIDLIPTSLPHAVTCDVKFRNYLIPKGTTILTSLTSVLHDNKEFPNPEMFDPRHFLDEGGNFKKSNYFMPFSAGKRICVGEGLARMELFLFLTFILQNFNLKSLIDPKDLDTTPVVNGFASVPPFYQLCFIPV

O=C(O)Cc1ccc(OC2CCN(C(=O)N[C@H]3C[C@@H]3c3ccccc3)CC2)c(Cl)c1 (racemic) : > 50 µM

As a next step, examine the molecule that follows.
Problem: GET /values?readout=IC50&system=UniProtKB P33261&item= O=C(O)c1ccc(OC2CCN(C(=O)N[C@H]3C[C@@H]3c3ccccc3)CC2)c(Cl)c1 (racemic)
Result: > 50 µM

====

Recorded CLint, one value per entry.
Test system: Liver microsome
Test: Intrinsic clearance in human liver microsomes measured per mg of protein at 1 uM after 30 mins by LC/MS/MS analysis
Format: ADME
Conditions: 0.5 h

Examples with their reported CLint follow.
O=C(O)c1ccc(OC2CCN(C(=O)N[C@H]3C[C@@H]3c3ccccc3)CC2)cc1 (racemic) : < 10 µL/min/mg
O=C(N[C@H]1C[C@@H]1c1ccccc1)N1CCC(Oc2ccc(-c3nnn[nH]3)cc2)CC1 (racemic) : < 33 µL/min/mg
O=C(O)Cc1ccc(OC2CCN(C(=O)N[C@H]3C[C@@H]3c3ccccc3)CC2)c(Cl)c1 (racemic) : < 10 µL/min/mg
O=C(O)c1cccc(OC2CCN(C(=O)N[C@H]3C[C@@H]3c3ccccc3)CC2)c1 (racemic) : < 10 µL/min/mg
O=C(O)c1ccc(OC2CCN(C(=O)N[C@H]3C[C@@H]3c3ccccc3)CC2)c(Cl)c1 (racemic) : < 10 µL/min/mg

Problem: GET /values?readout=CLint&system=Liver microsome&item= CC(C)c1noc(C2CCN(C(=O)N[C@H]3C[C@@H]3c3ccccc3)CC2)n1 (relative stereo)
Result: < 10 µL/min/mg

Problem: GET /values?readout=CLint&system=Liver microsome&item= O=C(O)Cc1ccc(OC2CCN(C(=O)N[C@H]3C[C@@H]3c3ccccc3)CC2)cc1 (relative stereo)
Result: < 33 µL/min/mg

====

Recorded IC50, one value per entry.
Biological target: Bifunctional epoxide hydrolase 2 (Rattus norvegicus, UniProt P80299)
Sequence (P80299 whole entry): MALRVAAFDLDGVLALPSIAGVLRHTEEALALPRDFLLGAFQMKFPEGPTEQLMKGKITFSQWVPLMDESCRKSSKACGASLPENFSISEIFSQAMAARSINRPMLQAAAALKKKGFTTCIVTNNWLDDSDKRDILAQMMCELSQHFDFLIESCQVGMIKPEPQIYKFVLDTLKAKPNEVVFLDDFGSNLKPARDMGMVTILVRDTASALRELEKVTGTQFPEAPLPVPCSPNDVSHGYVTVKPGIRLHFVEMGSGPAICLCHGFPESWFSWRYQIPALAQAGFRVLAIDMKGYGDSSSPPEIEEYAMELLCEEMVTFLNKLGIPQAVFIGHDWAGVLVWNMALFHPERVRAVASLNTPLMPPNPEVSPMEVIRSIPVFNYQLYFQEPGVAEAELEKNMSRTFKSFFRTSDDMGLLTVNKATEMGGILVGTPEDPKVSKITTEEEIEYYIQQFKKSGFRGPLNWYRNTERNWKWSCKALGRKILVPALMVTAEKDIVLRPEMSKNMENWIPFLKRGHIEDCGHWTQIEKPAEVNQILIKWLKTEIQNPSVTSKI
Assay: Inhibition of rat recombinant soluble epoxide hydrolase after 1 hr by fluorescence assay
Numeric answer only, unit nM assumed.

Examples with their reported IC50 follow.
O=C(O)c1ccc(OC2CCN(C(=O)N[C@H]3C[C@@H]3c3ccccc3)CC2)cc1 (racemic) : 32.2
COc1cccc(OC2CCN(C(=O)N[C@H]3C[C@@H]3c3ccccc3)CC2)c1 (relative stereo) : 5.1
O=C(O)Cc1ccc(OC2CCN(C(=O)N[C@H]3C[C@@H]3c3ccccc3)CC2)c(Cl)c1 (racemic) : 6.6

Problem: Record request: IC50 value, item O=C(N[C@H]1C[C@@H]1c1ccccc1)N1CCC(Oc2ccccc2Cl)CC1 (racemic)
Result: 3.5

Problem: Record request: IC50 value, item O=C(N[C@H]1C[C@@H]1c1ccccc1)N1CCC(Oc2cccnc2)CC1 (racemic)
Result: 20.2

Problem: Record request: IC50 value, item Cc1ccccc1OC1CCN(C(=O)N[C@H]2C[C@@H]2c2ccccc2)CC1 (racemic)
Result: 4.2

Problem: Record request: IC50 value, item O=C(N[C@H]1C[C@@H]1c1ccccc1)N1CCC(Oc2ccccc2C(F)(F)F)CC1 (racemic)
Result: 3.2

====

Recorded IC50, one value per entry.
Molecular target: Bifunctional epoxide hydrolase 2 (Homo sapiens, UniProt P34913)
Experiment: Inhibition of human recombinant soluble epoxide hydrolase after 1 hr by fluorescence assay
Numeric answer only, unit nM assumed.

O=C(N[C@H]1C[C@@H]1c1ccccc1)N1CCC(Oc2cccc(C(F)(F)F)c2)CC1 (racemic) : 15.8
O=C(N[C@H]1C[C@@H]1c1ccccc1)N1CCC(Oc2ccncc2)CC1 (racemic) : 24.4
O=C(N[C@H]1C[C@@H]1c1ccccc1)N1CCC(Oc2cccnc2)CC1 (racemic) : 25.2

Problem: Record request: IC50 value, item O=C(N[C@H]1C[C@@H]1c1ccccc1)N1CCC(Oc2ccccc2C(F)(F)F)CC1 (racemic)
Result: 2.1

Problem: Record request: IC50 value, item O=C(O)Cc1ccc(OC2CCN(C(=O)N[C@H]3C[C@@H]3c3ccccc3)CC2)cc1 (relative stereo)
Result: 43.2

Problem: Record request: IC50 value, item Cc1ccc(OC2CCN(C(=O)N[C@H]3C[C@@H]3c3ccccc3)CC2)cc1 (racemic)
Result: 14.2

Problem: Record request: IC50 value, item O=C(N[C@H]1C[C@@H]1c1ccccc1)N1CCC(Oc2ccccc2Cl)CC1 (racemic)
Result: 2

Problem: Record request: IC50 value, item COc1cccc(OC2CCN(C(=O)N[C@H]3C[C@@H]3c3ccccc3)CC2)c1 (relative stereo)
Result: 7.4

Problem: Record request: IC50 value, item O=C(N[C@H]1C[C@@H]1c1ccccc1)N1CCC(Oc2cccc(-c3ccccc3)c2)CC1 (racemic)
Result: 10.7

Problem: Record request: IC50 value, item O=C(N[C@H]1C[C@@H]1c1ccccc1)N1CCC(Oc2ccc(C(F)(F)F)cc2)CC1 (relative stereo)
Result: 29.8

Problem: Record request: IC50 value, item Cc1ccccc1OC1CCN(C(=O)N[C@H]2C[C@@H]2c2ccccc2)CC1 (racemic)
Result: 3.1

Problem: Record request: IC50 value, item O=C(N[C@H]1C[C@@H]1c1ccccc1)N1CCC(Oc2cccc(Cl)c2)CC1 (racemic)
Result: 12

Problem: Record request: IC50 value, item O=C(N[C@H]1C[C@@H]1c1ccccc1)N1CCC(Oc2ccccc2)CC1 (racemic)
Result: 18

Problem: Record request: IC50 value, item COc1ccccc1OC1CCN(C(=O)N[C@H]2C[C@@H]2c2ccccc2)CC1 (racemic)
Result: 11.3

Problem: Record request: IC50 value, item O=C(N[C@H]1C[C@@H]1c1ccccc1)N1CCC(Oc2ccccc2-c2ccccc2)CC1 (racemic)
Result: 14.7

Problem: Record request: IC50 value, item O=C(N[C@H]1C[C@@H]1c1ccccc1)N1CCC(Oc2ccc(-c3nnn[nH]3)cc2)CC1 (racemic)
Result: 3.3

====

Target: Bifunctional epoxide hydrolase 2 (Homo sapiens, UniProt P34913)
Sequence (P34913 whole entry): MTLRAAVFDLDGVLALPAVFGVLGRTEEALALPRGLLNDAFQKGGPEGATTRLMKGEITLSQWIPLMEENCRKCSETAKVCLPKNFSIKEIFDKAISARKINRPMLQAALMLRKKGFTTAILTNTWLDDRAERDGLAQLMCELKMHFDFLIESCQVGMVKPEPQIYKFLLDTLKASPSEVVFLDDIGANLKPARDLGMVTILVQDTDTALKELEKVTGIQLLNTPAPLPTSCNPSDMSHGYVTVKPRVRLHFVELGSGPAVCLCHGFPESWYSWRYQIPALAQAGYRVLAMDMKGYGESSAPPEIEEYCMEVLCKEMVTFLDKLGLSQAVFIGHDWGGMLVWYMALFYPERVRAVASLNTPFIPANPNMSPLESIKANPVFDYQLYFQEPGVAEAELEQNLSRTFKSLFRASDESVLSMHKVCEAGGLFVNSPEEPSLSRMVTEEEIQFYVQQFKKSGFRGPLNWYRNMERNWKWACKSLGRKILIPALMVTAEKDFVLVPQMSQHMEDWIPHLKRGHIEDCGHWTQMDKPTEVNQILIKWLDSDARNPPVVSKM
Assay: Inhibition of human recombinant soluble epoxide hydrolase after 1 hr by fluorescence assay
recorded endpoint: IC50 (nM)
Numeric answer only, unit nM assumed.

Problem: GET /values?readout=IC50&system=Bifunctional epoxide hydrolase 2 (Homo sapiens, UniProt P34913)&item= O=C(N[C@H]1C[C@@H]1c1ccccc1)N1CCC(Oc2ccc(-c3ccccc3)cc2)CC1 (racemic)
Result: 12

Problem: GET /values?readout=IC50&system=Bifunctional epoxide hydrolase 2 (Homo sapiens, UniProt P34913)&item= O=C(N[C@H]1C[C@@H]1c1ccccc1)N1CCC(Oc2ccccn2)CC1 (racemic)
Result: 27.4

Problem: GET /values?readout=IC50&system=Bifunctional epoxide hydrolase 2 (Homo sapiens, UniProt P34913)&item= O=C(N[C@H]1C[C@@H]1c1ccccc1)N1CCC(Oc2ccc(Cl)cc2)CC1 (racemic)
Result: 22.4

Problem: GET /values?readout=IC50&system=Bifunctional epoxide hydrolase 2 (Homo sapiens, UniProt P34913)&item= COc1ccc(OC2CCN(C(=O)N[C@H]3C[C@@H]3c3ccccc3)CC2)cc1 (racemic)
Result: 10.2

Problem: GET /values?readout=IC50&system=Bifunctional epoxide hydrolase 2 (Homo sapiens, UniProt P34913)&item= O=C(N[C@H]1C[C@@H]1c1ccccc1)N1CCC(OC(c2ccccc2)c2ccccc2)CC1 (racemic)
Result: 27.1

Problem: GET /values?readout=IC50&system=Bifunctional epoxide hydrolase 2 (Homo sapiens, UniProt P34913)&item= O=C(N[C@H]1C[C@@H]1c1ccccc1)N1CCC(Oc2cnccn2)CC1 (racemic)
Result: 26.7

Problem: GET /values?readout=IC50&system=Bifunctional epoxide hydrolase 2 (Homo sapiens, UniProt P34913)&item= O=C(O)c1ccc(OC2CCN(C(=O)N[C@H]3C[C@@H]3c3ccccc3)CC2)cc1 (racemic)
Result: 30.3

Problem: GET /values?readout=IC50&system=Bifunctional epoxide hydrolase 2 (Homo sapiens, UniProt P34913)&item= O=C(O)c1ccc(OC2CCN(C(=O)N[C@H]3C[C@@H]3c3ccccc3)CC2)c(Cl)c1 (racemic)
Result: 2.6

Problem: GET /values?readout=IC50&system=Bifunctional epoxide hydrolase 2 (Homo sapiens, UniProt P34913)&item= O=C(N[C@H]1C[C@@H]1c1ccccc1)N1CCC(Oc2ncccn2)CC1 (racemic)
Result: 94.2

Problem: GET /values?readout=IC50&system=Bifunctional epoxide hydrolase 2 (Homo sapiens, UniProt P34913)&item= Cc1cccc(OC2CCN(C(=O)N[C@H]3C[C@@H]3c3ccccc3)CC2)c1 (racemic)
Result: 8.9

Problem: GET /values?readout=IC50&system=Bifunctional epoxide hydrolase 2 (Homo sapiens, UniProt P34913)&item= O=C(O)Cc1ccc(OC2CCN(C(=O)N[C@H]3C[C@@H]3c3ccccc3)CC2)c(Cl)c1 (racemic)
Result: 4.3
